target.entity: N+/K+ ATPase alpha-4/beta-1 (Rattus norvegicus, UniProt Q64541)
Sequence (Q64541 whole entry, other chains not shown): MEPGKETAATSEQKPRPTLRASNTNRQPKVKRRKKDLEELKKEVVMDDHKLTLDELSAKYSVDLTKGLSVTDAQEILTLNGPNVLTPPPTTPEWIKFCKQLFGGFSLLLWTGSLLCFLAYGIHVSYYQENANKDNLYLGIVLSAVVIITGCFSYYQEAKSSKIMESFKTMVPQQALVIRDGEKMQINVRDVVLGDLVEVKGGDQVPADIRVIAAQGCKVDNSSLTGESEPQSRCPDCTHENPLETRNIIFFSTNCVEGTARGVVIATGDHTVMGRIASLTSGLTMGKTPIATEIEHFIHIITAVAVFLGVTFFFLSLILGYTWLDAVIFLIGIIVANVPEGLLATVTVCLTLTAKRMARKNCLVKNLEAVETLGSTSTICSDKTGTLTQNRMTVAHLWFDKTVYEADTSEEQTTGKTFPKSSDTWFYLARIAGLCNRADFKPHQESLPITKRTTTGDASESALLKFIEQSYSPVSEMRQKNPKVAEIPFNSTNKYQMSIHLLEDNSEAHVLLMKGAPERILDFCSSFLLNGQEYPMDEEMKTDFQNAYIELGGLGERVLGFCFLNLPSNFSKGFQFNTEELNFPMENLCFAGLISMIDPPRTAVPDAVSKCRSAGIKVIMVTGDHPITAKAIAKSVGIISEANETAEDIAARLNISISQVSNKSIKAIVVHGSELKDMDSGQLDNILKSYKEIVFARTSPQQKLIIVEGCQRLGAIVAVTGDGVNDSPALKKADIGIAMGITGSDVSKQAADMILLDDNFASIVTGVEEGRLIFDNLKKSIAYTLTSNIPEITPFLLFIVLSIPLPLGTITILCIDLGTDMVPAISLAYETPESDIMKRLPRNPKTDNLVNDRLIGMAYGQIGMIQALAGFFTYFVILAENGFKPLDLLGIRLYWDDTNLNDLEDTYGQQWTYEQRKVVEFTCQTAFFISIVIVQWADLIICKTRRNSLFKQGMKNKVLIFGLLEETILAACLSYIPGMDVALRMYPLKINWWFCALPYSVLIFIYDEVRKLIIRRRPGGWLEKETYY
measurement.protocol: Inhibition of recombinant rat Na+/K+-ATPase alpha4/beta1 expressed in baculovirus infected insect Sf9 cell membranes using [gamma-32P]ATP as substrate preincubated for 10 mins followed by substrate addition measured after 30 mins in presence of Na+, K+ and Mg2+ by liquid scintillation counting
Listed next: entries and their corresponding IC50.

Illustrative cases are given below, each with its answer.
molecule | property | obs.value
COc1ccc(-c2cn(C[C@H]3CC[C@]4(O)[C@@H]5CC[C@]6(O)C[C@@H](O)C[C@@H](O)[C@]6(CO)[C@H]5[C@H](O)C[C@]34C)nn2)cc1 | IC50 | 15000 to 39000 nM
C[C@@H]1O[C@@H](O[C@H]2C[C@@H](O)[C@]3(CO)[C@H]4[C@H](O)C[C@]5(C)[C@@H](C(O)c6cn(Cc7ccccc7)nn6)CC[C@]5(O)[C@@H]4CC[C@]3(O)C2)[C@H](O)[C@H](O)[C@H]1O (mixture of isomers) | IC50 | 1200 to 1500 nM
COCO[C@@H]1[C@H]2OC(C)(C)O[C@H]2[C@H](O[C@H]2C[C@H]3OC(C)(C)OC[C@]34[C@@H]3[C@@H](CC[C@]4(O)C2)[C@@]2(O)CC[C@H](C(O)c4cn(Cc5ccc(F)cc5)nn4)[C@@]2(C)C[C@H]3OCOC)O[C@H]1C (mixture of isomers) | IC50 | 12 to 70 nM
COCO[C@H]1C[C@H]2OC(C)(C)OC[C@]23[C@@H]2[C@@H](CC[C@]3(O)C1)[C@@]1(OCOC)CC[C@H](c3cn(Cc4ccccc4)nn3)[C@@]1(C)C[C@H]2OCOC | IC50 | 5 to 6.9 nM
COCO[C@H]1C[C@H]2OC(C)(C)OC[C@]23[C@@H]2[C@@H](CC[C@]3(O)C1)[C@@]1(OCOC)CC[C@H](/C=N/O)[C@@]1(C)C[C@H]2OCOC | IC50 | 1.4 to 2.9 nM

Query string: Give IC50 for C[C@]12C[C@@H](O)[C@H]3[C@@H](CC[C@]4(O)C[C@@H](O)C[C@@H](O)[C@]34CO)[C@@]1(O)CC[C@@H]2c1cn(Cc2ccc(Cl)cc2)nn1 tested on N+/K+ ATPase alpha-4/beta-1 (Rattus norvegicus, UniProt Q64541).
Result string: 32 to 43 nM

Query string: Give IC50 for C#CC(O)[C@H]1CC[C@]2(OCOC)[C@@H]3CC[C@]4(O)C[C@@H](OCOC)C[C@H]5OC(C)(C)OC[C@]54[C@H]3[C@H](OCOC)C[C@]12C (mixture of isomers) tested on N+/K+ ATPase alpha-4/beta-1 (Rattus norvegicus, UniProt Q64541).
Result string: 10 to 60 nM

Query string: Give IC50 for C[C@]12C[C@@H](O)[C@H]3[C@@H](CC[C@]4(O)C[C@@H](O)C[C@@H](O)[C@]34CO)[C@@]1(O)CC[C@@H]2c1cn(Cc2ccc(F)cc2)nn1 tested on N+/K+ ATPase alpha-4/beta-1 (Rattus norvegicus, UniProt Q64541).
Result string: 32 to 49 nM

Query string: Give IC50 for COCO[C@@H]1[C@H]2OC(C)(C)O[C@H]2[C@H](O[C@H]2C[C@H]3OC(C)(C)OC[C@]34[C@@H]3[C@@H](CC[C@]4(O)C2)[C@@]2(O)CC[C@H](C#N)[C@@]2(C)C[C@H]3OCOC)O[C@H]1C tested on N+/K+ ATPase alpha-4/beta-1 (Rattus norvegicus, UniProt Q64541).
Result string: 33 to 62 nM

Query string: Give IC50 for COCO[C@@H]1[C@H]2OC(C)(C)O[C@H]2[C@H](O[C@H]2C[C@H]3OC(C)(C)OC[C@]34[C@@H]3[C@@H](CC[C@]4(O)C2)[C@@]2(O)CC[C@H](C(O)CO)[C@@]2(C)C[C@H]3OCOC)O[C@H]1C (mixture of isomers) tested on N+/K+ ATPase alpha-4/beta-1 (Rattus norvegicus, UniProt Q64541).
Result string: 2100 to 3700 nM

Query string: Give IC50 for C[C@@H]1O[C@@H](O[C@H]2C[C@H]3OC(C)(C)OC[C@]34[C@H]3[C@H](O)C[C@]5(C)[C@@H](C6=CC(=O)OC6)CC[C@]5(O)[C@@H]3CC[C@]4(O)C2)[C@@H]2OC(C)(C)O[C@@H]2[C@H]1O tested on N+/K+ ATPase alpha-4/beta-1 (Rattus norvegicus, UniProt Q64541).
Result string: 4 to 4.3 nM

Provenance of the data: ChEMBL document CHEMBL4033781
